Parameter kon: see the listing below.
Biological target: T1, Histidine-tagged human 4-1BB protein (h4-1BB-His) (human, UniProt Q07011 24-186)
T1 construct: not shown: histidine tag
Test: SPR (Biacore T200), antibody on Protein A chip, h4-1BB-His injected;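 note: dissociation phase followed for 300 s, Kd derived as koff divided by kon from the kinetic fit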
Write the value in M⁻¹ s⁻¹ as a bare number.

BINDER	RESULT_UNITS	kon
59-5E4-mHvKv-IgG2 (antibody, V domains shown) VH: QVQLQQPGAELVRPGASVKLSCKASGYTFTTYWINWVRQRPGQGLEWIGNIYPSDSYTNYNQKFKDKASLTVDKSSNTAYMQLSSPTSEDSAVYYCAREAGDGTHYYAIDYWGQGTSVTVSS VL: NIVMTQSPKSMSMSVGERVTLSCKASENVGTYVSWYQQKPEQSPKLLIYGASNRYPGVPDRFTGSGSATDFTLTISSLQAEDLADYHCGQGYSYLRTFGGGTNLEIK	M⁻¹ s⁻¹	1.06e+06
69-3C2-mHvKv-IgG2 (antibody, V domains shown) VH: DVQLVESGGGLVQPGGSRKLSCAASGFSFSSFGMHWMRQAPEKGLEWVAYISSGSSAIYYADTVKGRFTISRDNPKNTLFLQMTSLRSEDTAMYYCARDWVDYWGQGTTLTVSS VL: DIQMTQSPASLSVSVGETVTITCRASENIYSNLVWYQQKQGKSPQLLVYTATKLTNGVPSRFSGSGSGTQYSLKINSLQSEDFGTYYCQHFWDTPYTFGGGTKLEMK	M⁻¹ s⁻¹	1.16e+06
5F9-H1K4-IgG4 (antibody, V domains shown, humanized) VH: QVQLQESGPGLVKPSETLSLTCTVSGFSLTTYDISWVRQPPGKGLEWIGVIWTGGGTNYNSSFMSRVTISKDTSKNQVSLKLSSVTAADTAVYYCERVDYWGQGTTVTVSS VL: DVVMTQSPLSLPVTLGDPASISCRSSQSLVHSNGNTYLHWYLQRPGQSPKLLIYKVSNRFSGVPDRFSGSGSGTAFTFKISRVEAEDVGVYYCSQNTHVPWTFGGGTKLEIK	M⁻¹ s⁻¹	246000
45-7E9-mHvKv-IgG2 (antibody, V domains shown) VH: QVQLKQSGPGLVQPSQSLSITCTVSGFSLTTYGVHWVRQPPGKGLEWLGVIWSDGNTDYNDAFISRLSITKDNSTSQVFFKMNGLQADDTAIYYCARNSITSVSFDCWGQGTTLTVSS VL: DIVMTQSQKFMSTSVGDRVSVTCKASQNVGTTVAWYQQRPGQSPKALICSASYRYSGVPDRFTGSGSGTDFTLTISNVQSEDLAEYFCQQYNSYPLTFGSGTKLEIK	M⁻¹ s⁻¹	600000
6A5-H1K2-IgG2 (antibody, V domains shown, humanized) VH: QVQLVQSGAEVKKPGSSVKLSCKASGYTFSSYWINWVRQAPGQGLEWMGNIYPSDSYTNYNQKFKDRVTLTVDKSTSTAYMELSSLRSEDTAVYYCTRTWEFYYDSVFDYWGQGTLVTVSS VL: DIQMTQSPSSLSASLGERVTITCKASQDINSYLSWYQQKPGKAPKTLIYRANRLVDGVPSRFSGSGSGQDFTLTISSLQPEDIATYYCLQYDELPPTFGGGTKVEIK	M⁻¹ s⁻¹	2.38e+06

Ask | For 54-8B11-mHvKv-IgG2 (antibody, V domains shown) VH: QIQLVQSGPELKKPGETVKISCKASKFTFTNYGMNWVKQAPGKALKWMGWINTYTGEPTYADDFKGRFDFSLETSATTAYLQINNLKNEDTATYFCARREYYPWVFVYWGQGTLVTVSA VL: ENVLTQSPAIMSASPGEKVTMTCSASSSVSYMHWYQQKSSTSPKLWIYDTSKLASGVPGRFSGSGSGNSYSLTISSMEAEDVATYYCFQGSGYPLTFGGGTKLEIK , what is its reported kon?
Reply | 417000

Ask | Requested read-out: kon. Entry: 5F9-H3K1-IgG4 (antibody, V domains shown, humanized) VH: QVQLKESGPGLVKPSETLSITCTVSGFSLTTYDISWVRQPPGKGLEWLGVIWTGGGTNYNSSFMSRVTISKDNSKNQVSLKLSSVTAADTAIYYCERVDYWGQGTTLTVSS VL: DVVMTQSPLSLPVTLGQPASISCRSSQSLVHSNGNTYLHWFQQRPGQSPRLLIYKVSNRFSGVPDRFSGSGSGTAFTFKISRVEAEDVGVYYCSQNTHVPWTFGGGTKVEIK
Reply | 198000

Ask | Please look up its kon: 5F9-H1K1-IgG4 (antibody, V domains shown, humanized) VH: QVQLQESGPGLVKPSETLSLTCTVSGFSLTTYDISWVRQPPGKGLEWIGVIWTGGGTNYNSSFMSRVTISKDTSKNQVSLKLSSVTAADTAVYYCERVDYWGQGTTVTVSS VL: DVVMTQSPLSLPVTLGQPASISCRSSQSLVHSNGNTYLHWFQQRPGQSPRLLIYKVSNRFSGVPDRFSGSGSGTAFTFKISRVEAEDVGVYYCSQNTHVPWTFGGGTKVEIK
Reply | 222000

Ask | State the recorded kon for this entry: 1C4-H1K1-IgG4 (antibody, V domains shown, humanized; also called 1C4-IgG4-H1K1) VH: QVQMVQSGAEVKKPGASVKLSCKASGFTFSSSYINWLRQAPGQRLEWMGWIFAGTGGTYYNQKFTGRVTITRDTSASTAYMELSSLRSEDTAIYYCARHSPRATLFDFWGQGTTLTVSS VL: EIVLTQSPATLSLSPGERATLSCRASSSVNHMHWYQQKPGQAPRALIYATSNLASGIPARFSGSGSGTSFTLTISSLEPEDFAVYYCQQWSSNPYTFGGGTKLEIK
Reply | 26700

Ask | Which kon value belongs to 45-8F1-mHvKv-IgG2 (antibody, V domains shown) VH: EVQLQQSGTVLARPGASVKMSCKASGYSFTSYWMHWVKQRPGQGLEWIGVIYPGNSDTSYNQKFKGKAKLTAVTSASTAYMDLSSLTNEDSAVYYCTRGITTAPDYWGQGTTLTVSS VL: NIVMTQSPKSMSMSVGERVTLSCKASENVGIHVSWYQQKPEQSPKLLIYGASSGYNGVPDRFTGSGSATDFTLTISSVQPEDLADYHCGQTYSYPFTFGSGTKLEIK ?
Reply | 47000
